Origin of values: patent US9260483B2

target: αvβ3 integrin (Homo sapiens, UniProt P05106+P06756); construct: endogenous in cells; host or cells: M21 human melanoma cells; experiment: In vitro binding assay: displacement of 125I-echistatin on M21 human melanoma cells; conditions: IC50 (nM)
Sequence (P06756 31-889 limits assumed): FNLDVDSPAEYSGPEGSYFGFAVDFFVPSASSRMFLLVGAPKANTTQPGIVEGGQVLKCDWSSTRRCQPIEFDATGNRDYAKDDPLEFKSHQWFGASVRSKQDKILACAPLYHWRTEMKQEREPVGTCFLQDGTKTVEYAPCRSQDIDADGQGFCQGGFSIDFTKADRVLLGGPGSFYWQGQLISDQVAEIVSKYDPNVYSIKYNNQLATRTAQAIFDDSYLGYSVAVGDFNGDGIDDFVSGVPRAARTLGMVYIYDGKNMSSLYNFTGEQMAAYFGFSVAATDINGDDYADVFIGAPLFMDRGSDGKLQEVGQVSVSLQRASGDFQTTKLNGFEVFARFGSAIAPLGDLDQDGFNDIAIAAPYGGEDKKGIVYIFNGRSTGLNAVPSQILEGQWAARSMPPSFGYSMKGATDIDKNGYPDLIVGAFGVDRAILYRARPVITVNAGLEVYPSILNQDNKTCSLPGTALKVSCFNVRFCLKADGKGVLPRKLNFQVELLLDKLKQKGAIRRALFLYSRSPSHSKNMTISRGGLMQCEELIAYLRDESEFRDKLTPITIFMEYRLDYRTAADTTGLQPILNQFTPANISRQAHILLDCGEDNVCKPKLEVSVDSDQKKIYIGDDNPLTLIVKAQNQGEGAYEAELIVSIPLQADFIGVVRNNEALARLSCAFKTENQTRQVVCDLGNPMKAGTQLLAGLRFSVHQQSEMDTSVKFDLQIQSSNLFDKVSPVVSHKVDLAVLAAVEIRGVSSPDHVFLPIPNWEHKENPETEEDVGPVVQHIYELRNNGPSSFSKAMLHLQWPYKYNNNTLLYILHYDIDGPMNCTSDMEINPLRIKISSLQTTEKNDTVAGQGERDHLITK
Sequence (P06756 891-1048 partner limits assumed): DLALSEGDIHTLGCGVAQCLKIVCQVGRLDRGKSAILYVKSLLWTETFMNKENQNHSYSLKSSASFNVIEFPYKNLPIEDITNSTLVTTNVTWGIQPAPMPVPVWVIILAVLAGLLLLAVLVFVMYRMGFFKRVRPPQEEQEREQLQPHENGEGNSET
Sequence (P05106 27-788): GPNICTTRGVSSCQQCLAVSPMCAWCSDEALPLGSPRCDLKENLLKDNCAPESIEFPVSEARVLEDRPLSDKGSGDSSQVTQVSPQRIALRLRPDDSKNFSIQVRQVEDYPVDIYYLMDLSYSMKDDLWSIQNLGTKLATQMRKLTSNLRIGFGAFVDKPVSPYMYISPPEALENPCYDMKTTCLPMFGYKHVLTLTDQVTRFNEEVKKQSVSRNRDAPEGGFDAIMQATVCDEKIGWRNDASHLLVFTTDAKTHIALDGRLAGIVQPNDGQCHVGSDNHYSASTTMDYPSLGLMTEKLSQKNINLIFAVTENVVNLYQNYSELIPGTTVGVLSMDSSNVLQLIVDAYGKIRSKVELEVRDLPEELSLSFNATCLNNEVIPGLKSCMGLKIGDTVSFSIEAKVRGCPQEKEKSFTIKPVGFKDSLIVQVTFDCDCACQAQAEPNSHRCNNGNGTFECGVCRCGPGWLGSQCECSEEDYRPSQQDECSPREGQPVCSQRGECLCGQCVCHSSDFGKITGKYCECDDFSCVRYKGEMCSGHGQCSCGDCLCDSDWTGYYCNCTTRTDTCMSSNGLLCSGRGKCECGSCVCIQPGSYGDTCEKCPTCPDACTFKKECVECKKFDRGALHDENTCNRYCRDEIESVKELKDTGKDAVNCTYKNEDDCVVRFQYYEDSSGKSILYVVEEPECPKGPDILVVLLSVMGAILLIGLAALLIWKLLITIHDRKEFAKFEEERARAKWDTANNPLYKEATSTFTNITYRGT
Form field: IC50 (one value per entry).

{"molecule": "CCN=c1cc2oc3cc(NCC)c(C)cc3c(-c3ccccc3C(=O)NCCCCCCNC(=O)CCP(=O)(O)CN3CCN(CP(=O)(O)CCC(=O)NCCCCC4NC(=O)[C@@H](Cc5ccccc5)NC(=O)[C@H](CC(=O)O)NC(=O)CNC(=O)[C@H](CCCNC(=N)N)NC4=O)CCN(CP(=O)(O)CCC(=O)NCCCC[C@@H]4NC(=O)[C@@H](Cc5ccccc5)NC(=O)[C@H](CC(=O)O)NC(=O)CNC(=O)[C@H](CCCNC(=N)N)NC4=O)CC3)c-2cc1C (stereo partly shown) [Compound R2RhoP9]", "measurement target": "αvβ3 integrin (Homo sapiens, UniProt P05106+P06756)", "unit label": "nM", "IC50": 92}
{"molecule": "N=C(N)NCCC[C@@H]1NC(=O)[C@H](CCCCNC(=O)CCP(=O)(O)CN2CCN(CP(=O)(O)CCC(=O)O)CCN(CP(=O)(O)CCC(=O)O)CC2)NC(=O)[C@@H](Cc2ccccc2)NC(=O)[C@H](CC(=O)O)NC(=O)CNC1=O [Compound R1P9]", "measurement target": "αvβ3 integrin (Homo sapiens, UniProt P05106+P06756)", "unit label": "nM", "IC50": 2890}
{"molecule": "N=C(N)NCCC[C@@H]1NC(=O)[C@H](CCCCNC(=O)CCCCCNC(=O)CC[PH](=O)CN2CCN(CP(=O)(O)CCC(=O)NCCCCCC(=O)NCCCC[C@@H]3NC(=O)[C@H](Cc4ccccc4)NC(=O)[C@H](CC(=O)O)NC(=O)CNC(=O)[C@H](CCCNC(=N)N)NC3=O)CCN(CP(=O)(O)CCC(=O)NCCCCCC(=O)NCCCC[C@@H]3NC(=O)[C@H](Cc4ccccc4)NC(=O)[C@H](CC(=O)O)NC(=O)CNC(=O)[C@H](CCCNC(=N)N)NC3=O)CC2)NC(=O)[C@H](Cc2ccccc2)NC(=O)[C@H](CC(=O)O)NC(=O)CNC1=O (stereo partly shown) [Compound R3HexP9]", "measurement target": "αvβ3 integrin (Homo sapiens, UniProt P05106+P06756)", "unit label": "nM", "IC50": 85}
{"molecule": "N=C(N)NCCC[C@@H]1NC(=O)[C@H](CCCCNC(=O)CCP(=O)(O)CN2CCN(CP(=O)(O)CCC(=O)O)CCN(CP(=O)(O)CCC(=O)NCCCC[C@@H]3NC(=O)[C@@H](Cc4ccccc4)NC(=O)[C@H](CC(=O)O)NC(=O)CNC(=O)[C@H](CCCNC(=N)N)NC3=O)CC2)NC(=O)[C@@H](Cc2ccccc2)NC(=O)[C@H](CC(=O)O)NC(=O)CNC1=O [Compound R2P9]", "measurement target": "αvβ3 integrin (Homo sapiens, UniProt P05106+P06756)", "unit label": "nM", "IC50": 370}
